Data provenance is patent US11179376B2.

Form field: AUClast (one value per entry).
experimentDescription: Pharmacokinetics test in beagle dogs (capsule by gavage, plasma LC/MS/MS)
Format: in vivo
conditionDescription: capsule by gavage, dose 2.5 mg/kg, plasma
Structures can show the parent of a compound that is named as a salt.
quantityKind: AUClast (ng·h/mL)

[[record]]
molecule = "COc1ncc(-c2ccn3ncc(C#N)c3c2)cc1NS(=O)(=O)c1ccc(F)cc1F [amorphous form of mono-sodium salt]"
quantitykind = "AUClast"
valuereported = 7290

[[record]]
molecule = "COc1ncc(-c2ccn3ncc(C#N)c3c2)cc1NS(=O)(=O)c1ccc(F)cc1F"
quantitykind = "AUClast"
valuereported = 8420

[[record]]
molecule = "COc1ncc(-c2ccn3ncc(C#N)c3c2)cc1NS(=O)(=O)c1ccc(F)cc1F [crystalline form A of mono-lithium salt]"
quantitykind = "AUClast"
valuereported = 4290

[[record]]
molecule = "COc1ncc(-c2ccn3ncc(C#N)c3c2)cc1NS(=O)(=O)c1ccc(F)cc1F [crystalline form A of mono-sodium salt]"
quantitykind = "AUClast"
valuereported = 8730

